Every entry's value here was drawn from PubChem BioAssay (Tox21).

test method notes: qHTS assay for identifying genotoxic compounds that show differential cytotoxicity against isogenic chicken DT40 cell lines with known DNA damage response pathways - wild type cell line (AID 743012); further: nearly all actives have a fitted effect of over 60% in size
experimental parameters: DT40 wild type chicken cells viability, CellTiter-Glo, 40 h; series mostly up to 68.4 µM
Inconclusive results are not listed. Calls of active or inactive are those of the source. The call rests on the fitted dose curve; in most records, active means well fitted cell-killing curve with a large enough effect in the repeat runs; inconclusive means weak or mixed curves, or effect the other way; inactive means no such curve, though single readings can be large or run the other way. Non-standard residues stand in square brackets, D forms with d. Residues, ends and D or L forms follow the SMILES beside them. pGlu = O=C1CC[C@@H](C(=O)O)N1
Classes used: TRUE for active, FALSE for inactive

[[record]]
compound = "C[N@+]12CCCC[C@@H]1CCC(=C(c1cccs1)c1cccs1)C2"
class_name = "TRUE"

[[record]]
compound = "CCCCCCCCCCCCCCCCCC(=O)OCCO"
class_name = "FALSE"

[[record]]
compound = "CC[C@H](C)[C@@H]1NC(=O)[C@H](Cc2ccc(O)cc2)NC(=O)[C@@H](N)CSSC[C@@H](C(=O)N2CCC[C@H]2C(=O)N[C@@H](CC(C)C)C(=O)NCC(N)=O)NC(=O)[C@H](CC(N)=O)NC(=O)[C@H](CCC(N)=O)NC1=O"
class_name = "FALSE"

[[record]]
compound = "CC(=O)Oc1cc(C)c(OC(C)=O)c2ccccc12"
class_name = "TRUE"

[[record]]
compound = "OC[C@H]1O[C@@H](O[C@H]2[C@H](O)[C@@H](O)[C@H](O)O[C@@H]2CO)[C@H](O)[C@@H](O)[C@@H]1O"
class_name = "FALSE"

[[record]]
compound = "O=[n+]1ccn([O-])c2ccccc21"
class_name = "FALSE"

[[record]]
compound = "CN1CCN(C2=Nc3ccccc3Cc3ccccc32)CC1"
class_name = "TRUE"

[[record]]
compound = "COc1ccc(C[C@@H](C)NC[C@H](O)c2ccc(O)c(NC=O)c2)cc1"
class_name = "TRUE"

[[record]]
compound = "CC[C@H](C)[C@H](NC(=O)[C@H](Cc1ccccc1)NC(=O)[C@H](C)NC(=O)[C@H](CC(=O)O)NC(=O)[C@H](CCCCN)NC(=O)[C@H](CO)NC(=O)[C@@H]1CCCN1C(=O)[C@@H]1CCC(=O)N1)C(=O)NCC(=O)N[C@@H](CC(C)C)C(=O)N[C@@H](CCSC)C(N)=O ([pGlu]PSKDAFIGLM-NH2)"
class_name = "FALSE"

[[record]]
compound = "O=C(/C=C/c1cccc(F)c1)NC1CC1"
class_name = "FALSE"

[[record]]
compound = "CC(=O)Nc1ccc(OC(=O)c2ccccc2O)cc1"
class_name = "FALSE"

[[record]]
compound = "CN(C)CCC=C1c2ccccc2C(C)(C)c2ccccc21"
class_name = "TRUE"

[[record]]
compound = "CC(=O)N[C@@H]1C(O[C@H]2O[C@H](C(=O)O)C(O)[C@H](O)[C@H]2O)[C@H](O)[C@@H](CO)O[C@H]1O[C@@H]1C(C(=O)O)O[C@@H](O[C@H]2[C@H](O)[C@@H](CO)OC(O)[C@@H]2NC(C)=O)[C@H](O)[C@H]1O (stereo partly specified)"
class_name = "FALSE"

[[record]]
compound = "CC(=O)Nc1c(I)c(C(=O)O)c(I)c(N(C)C(C)=O)c1I"
class_name = "FALSE"

[[record]]
compound = "C=C1C(=C/C=C2\\CCC[C@]3(C)[C@@H]([C@H](C)CCCC(C)(C)O)CC[C@@H]23)C[C@@H](O)C[C@@H]1O"
class_name = "TRUE"

[[record]]
compound = "C[C@]12CCC(=O)C=C1CC[C@@H]1[C@@H]2[C@@H](O)C[C@@]2(C)[C@H]1CC[C@]2(O)C(=O)COP(=O)(O)O"
class_name = "FALSE"

